Just for reference, patent US9242970B2 is where these values come from.

# TARGET DESC: human orexin-1 receptor (Homo sapiens (Human), UniProt O43613)
# Sequence (O43613 whole entry): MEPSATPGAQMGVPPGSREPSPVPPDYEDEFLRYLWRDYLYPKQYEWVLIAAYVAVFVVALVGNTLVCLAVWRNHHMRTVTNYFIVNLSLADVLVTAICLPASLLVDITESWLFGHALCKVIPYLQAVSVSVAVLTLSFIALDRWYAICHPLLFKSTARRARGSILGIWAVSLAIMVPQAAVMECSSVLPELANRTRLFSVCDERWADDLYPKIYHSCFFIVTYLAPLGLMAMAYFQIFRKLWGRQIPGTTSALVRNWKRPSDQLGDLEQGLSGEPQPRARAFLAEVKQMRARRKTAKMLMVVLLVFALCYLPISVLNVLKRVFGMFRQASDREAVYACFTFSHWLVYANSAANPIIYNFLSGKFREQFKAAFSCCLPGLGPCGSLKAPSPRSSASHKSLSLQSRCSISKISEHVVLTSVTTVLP
# TEST PROTOCOL: In vitro assay: intracellular calcium measurements (FLIPR), antagonistic activity
# Type: cell-based
# TEST CONDITIONS: CHO cells, 3 nM orexin-A, compound incubation time of 10 min; marked values are geometric means of n = 2-6; read-out: IC50 OX1
pIC50: −log10 of the molar value.
Lab note: compare pIC50 against 6. Equal or greater, write Satisfied. Smaller, write Not satisfied.

| COMPOUND | ASSIGNED CATEGORY |
| --- | --- |
| COc1cccc(OC)c1[C@@H]1C[C@@H](OC)C(=O)N1Cc1ccc(OC(F)(F)F)cc1 (racemic) [Example 262] | Not satisfied |
| COc1cccc(OC)c1C1CCCC(=O)N1Cc1ccc(OCCF)cc1 (stereo not shown) [Example 176] | Satisfied |
| O=C1CCCC(c2c(Cl)cccc2Cl)N1Cc1ccc(OC(F)(F)F)cc1 (stereo not shown) [Example 228] | Not satisfied |
| COc1cccc(C)c1C1CCCC(=O)N1Cc1ccc(OC(F)(F)F)cc1 (stereo not shown) [Example 222] | Not satisfied |
| COc1cc(F)c(C2CCCC(=O)N2Cc2ccc(OC(F)(F)F)cc2)c(F)c1 (stereo not shown) [Example 225] | Not satisfied |

stdin: Could you tell me if the measured pIC50 of O=C1CCCC(c2ccccc2OC(F)(F)F)N1Cc1ccc(OC(F)(F)F)cc1 (stereo not shown) [Example 252] reaches 6 or more?
stdout: Not satisfied

stdin: Could you tell me if the measured pIC50 of COc1cc(C)cc(OC)c1C1CCCC(=O)N1Cc1ccc(OC(F)(F)F)cc1 (stereo not shown) [Example 233] reaches 6 or more?
stdout: Satisfied

stdin: Could you tell me if the measured pIC50 of COc1cccc(OC)c1C1CCCC(=O)N1Cc1ccc2sccc2c1 (stereo not shown) [Example 250] reaches 6 or more?
stdout: Satisfied

stdin: Could you tell me if the measured pIC50 of COc1cccc(OC)c1C1CCCC(=O)N1Cc1cccc(OC(F)F)n1 (stereo not shown) [Example 183] reaches 6 or more?
stdout: Satisfied

stdin: Could you tell me if the measured pIC50 of COc1cccc(OC)c1C1CCCC(=O)N1C(C)c1cnc(OC(F)F)c(Cl)c1 (stereo not shown) [Example 185] reaches 6 or more?
stdout: Satisfied

stdin: Could you tell me if the measured pIC50 of COc1cccc(OC)c1C1CC(C)C(=O)N1Cc1cccc(OC(F)F)c1 (stereo not shown) [Example 198] reaches 6 or more?
stdout: Satisfied

stdin: Could you tell me if the measured pIC50 of CCOc1cccc(OCC)c1C1CCCC(=O)N1Cc1ccc(OC(F)(F)F)cc1 (stereo not shown) [Example 231] reaches 6 or more?
stdout: Satisfied

stdin: Could you tell me if the measured pIC50 of COc1cc(F)cc(OC)c1C1CCCC(=O)N1Cc1ccc(OC(F)(F)F)cc1 (stereo not shown) [Example 232] reaches 6 or more?
stdout: Satisfied

stdin: Could you tell me if the measured pIC50 of COc1cccc(OC)c1C1CCCC(=O)N1Cc1ccc(OC(C)C)cc1 (stereo not shown) [Example 206] reaches 6 or more?
stdout: Satisfied

stdin: Could you tell me if the measured pIC50 of O=C1CCCC(c2ccccc2C(F)(F)F)N1Cc1ccc2ccccc2c1 (stereo not shown) [Example 239] reaches 6 or more?
stdout: Not satisfied

stdin: Could you tell me if the measured pIC50 of Cc1ccc(F)c(C2CCCC(=O)N2Cc2ccc(OC(F)(F)F)cc2)c1F (stereo not shown) [Example 226] reaches 6 or more?
stdout: Not satisfied

stdin: Could you tell me if the measured pIC50 of COc1ccc2cc(CN3C(=O)CCCC3c3c(OC)cccc3OC)ccc2c1 (stereo not shown) [Example 171] reaches 6 or more?
stdout: Satisfied

stdin: Could you tell me if the measured pIC50 of COc1cccc(OC)c1C1CCC(=O)N1Cc1cnc2ccccc2c1 (stereo not shown) [Example 109] reaches 6 or more?
stdout: Satisfied

stdin: Could you tell me if the measured pIC50 of O=C1CCCC(c2c(F)cccc2F)N1Cc1ccc(OC(F)(F)F)cc1 (stereo not shown) [Example 224] reaches 6 or more?
stdout: Not satisfied

stdin: Could you tell me if the measured pIC50 of COc1cccc(OC)c1C1CC(F)(F)C(=O)N1Cc1ccc(OC(F)(F)F)cc1 (stereo not shown) [Example 256] reaches 6 or more?
stdout: Satisfied

stdin: Could you tell me if the measured pIC50 of COc1cccc(OC)c1C1CCCC(=O)N1Cc1ccc(OC(F)(F)F)c(F)c1 (stereo not shown) [Example 160] reaches 6 or more?
stdout: Satisfied

====

# TARGET DESC: human orexin-1 receptor (Homo sapiens (Human))
# TEST PROTOCOL: In vitro assay: intracellular calcium measurements (FLIPR), antagonistic activity
# Type: cell-based
# TEST CONDITIONS: CHO cells, 3 nM orexin-A, compound incubation 120 min; marked values are geometric means of n = 2-6; read-out: IC50 OX1
# reported pIC50; entries follow
Just so you know, pIC50 here is -log10 of the concentration in molar units; reply with that number alone.

| COMPOUND | RECORDED NUMBER |
| --- | --- |
| Cc1nc(-c2cccc(CN3C(=O)CCC3c3ccccc3-c3ccccc3)c2)cs1 (centres unmarked) [Example 286] | 6.98 |

stdin: Supply recorded pIC50 for COc1ccnc(OC)c1C1CC(C)C(=O)N1Cc1ccc2oc3ccccc3c2c1 (centres unmarked) [Example 352] here.
stdout: 8.15

stdin: Supply recorded pIC50 for COc1ccc2c(C)noc2c1C1CCCC(=O)N1Cc1cccc(-c2ccccc2)c1 (centres unmarked) [Example 235] here.
stdout: 6.54

stdin: Supply recorded pIC50 for COc1cccc(OC)c1C1CC(C)C(=O)N1Cc1ccc2nc(C)sc2c1 (centres unmarked) [Example 151] here.
stdout: 6.90

stdin: Supply recorded pIC50 for COc1cccc(OC)c1C1CCCC(=O)N1Cc1cccc(N2CCCCC2)n1 (centres unmarked) [Example 28] here.
stdout: 7.68

stdin: Supply recorded pIC50 for COc1cccc(F)c1C1CC(C)C(=O)N1Cc1csc(-c2ccc(C)cc2)n1 (centres unmarked) [Example 363] here.
stdout: 6.37

stdin: Supply recorded pIC50 for COc1cccc(OC)c1C1CCC(=O)N1Cc1nc2ccccc2s1 (centres unmarked) [Example 128] here.
stdout: 5.41

stdin: Supply recorded pIC50 for COc1ccc(Cl)c(OC)c1[C@@H]1C[C@H](Cl)C(=O)N1Cc1ccc(OC(F)(F)F)cc1 (racemic) [Example 318] here.
stdout: 6.78

====

# TARGET DESC: human orexin-2 receptor (Homo sapiens (Human))
# Sequence (O43614 whole entry): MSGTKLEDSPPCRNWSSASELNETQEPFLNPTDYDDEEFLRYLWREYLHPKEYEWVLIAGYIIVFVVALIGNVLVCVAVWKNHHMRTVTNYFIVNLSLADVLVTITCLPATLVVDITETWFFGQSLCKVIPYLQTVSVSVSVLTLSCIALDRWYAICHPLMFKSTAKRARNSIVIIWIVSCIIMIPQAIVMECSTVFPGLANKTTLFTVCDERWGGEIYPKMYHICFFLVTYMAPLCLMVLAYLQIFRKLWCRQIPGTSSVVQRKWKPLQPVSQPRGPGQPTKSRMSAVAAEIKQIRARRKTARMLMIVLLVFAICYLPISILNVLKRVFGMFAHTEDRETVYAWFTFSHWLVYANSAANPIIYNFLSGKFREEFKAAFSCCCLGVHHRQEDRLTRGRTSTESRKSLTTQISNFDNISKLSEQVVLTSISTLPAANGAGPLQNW
# TEST PROTOCOL: In vitro assay: intracellular calcium measurements (FLIPR), antagonistic activity
# Assay type: cell-based
# TEST CONDITIONS: CHO cells, 3 nM orexin-A, compound incubation 120 min; marked values are geometric means of n = 2-6; read-out: IC50 OX2
# Method: In Vitro Assay: Intracellular Calcium Measurements: […] Fluorescence is measured for each well at 1 second intervals, and the height of each fluorescence peak is compared to the height of the fluorescence peak induced by 3 nM orexin-A with vehicle in place of antagonist. […] The calculated IC50 values may fluctuate depending on the daily cellular assay performance. […]
# reported pIC50; entries follow
Just so you know, pIC50 here is -log10 of the concentration in molar units; reply with that number alone.

Here are 5 molecules together with their reported answers.
| MOLECULE | pIC50 |
| --- | --- |
| COc1cccc(OC)c1C1CCC(=O)N1Cc1cccc(-c2noc(C)n2)c1 (centres unmarked) | 6.26 |
| COc1cccc(F)c1[C@@H]1C[C@H](Cl)C(=O)N1Cc1ccc(OC(F)(F)F)cc1 (racemic) | 7.02 |
| COc1cccc(OC)c1C1CCCC(=O)N1Cc1cc(Cl)cc(-c2ccccn2)c1 (centres unmarked) | 7.96 |
| COc1cccc(F)c1[C@@H]1C[C@@H](Cl)C(=O)N1Cc1ccc2oc3ccccc3c2c1 (racemic) | 7.54 |
| CCOc1ccccc1[C@@H]1C[C@@H](O)C(=O)N1Cc1ccc(OC(F)(F)F)cc1 (racemic) | 6.77 |

stdin: Supply recorded pIC50 for CCCOc1cccc(F)c1C1CC(C)C(=O)N1Cc1ccc(OC(F)(F)F)cc1 (centres unmarked) here.
stdout: 6.54

stdin: Supply recorded pIC50 for COc1cccc(OC)c1C1CCC(=O)N1Cc1ccc(-c2ccccc2)cc1 (centres unmarked) here.
stdout: 6.74

stdin: Supply recorded pIC50 for COc1cccc(OC)c1C1CCC(=O)N1Cc1ccc(Oc2nccs2)cc1 (centres unmarked) here.
stdout: 6.67

====

# reported IC50; entries follow
# TARGET DESC: human orexin-1 receptor (Homo sapiens (Human), UniProt O43613)
# TEST PROTOCOL: In vitro assay: intracellular calcium measurements (FLIPR), antagonistic activity
# Assay type: cell-based
# TEST CONDITIONS: CHO cells, 3 nM orexin-A, compound incubation time of 10 min; marked values are geometric means of n = 2-6; read-out: IC50 OX1

Here are 6 molecules together with their reported answers.
| MOLECULE | TARGET DESC | IC50 |
| --- | --- | --- |
| COc1cccc(OC)c1C1CC(C)CC(=O)N1Cc1ccc(OC(F)(F)F)cc1 (stereo not drawn) | human orexin-1 receptor (Homo sapiens (Human), UniProt O43613) | 537 nM |
| COc1cccc(OC)c1C1CC(C)(C)C(=O)N1Cc1ccc(OC(F)(F)F)cc1 (stereo not drawn) | human orexin-1 receptor (Homo sapiens (Human), UniProt O43613) | 22 nM |
| COc1cccc(OC)c1C1CCCC(=O)N1Cc1ccc(N2CCCC2)cc1 (stereo not drawn) | human orexin-1 receptor (Homo sapiens (Human), UniProt O43613) | 1070 nM |
| COc1cccc(OC)c1C1CCCC(=O)N1Cc1ccc2c(c1)nnn2C (stereo not drawn) | human orexin-1 receptor (Homo sapiens (Human), UniProt O43613) | 10100 nM |
| CC[C@H]1C[C@@H](c2c(OC)cccc2OC)N(Cc2ccc(OC(F)(F)F)cc2)C1=O (racemic) | human orexin-1 receptor (Homo sapiens (Human), UniProt O43613) | 619 nM |
| COc1cccc(OC)c1C1CCCC(=O)N1Cc1cccc(Oc2ccccc2)c1 (stereo not drawn) | human orexin-1 receptor (Homo sapiens (Human), UniProt O43613) | 225 nM |

stdin: Supply recorded IC50 for COc1cccc(OC)c1C1CCCC(=O)N1Cc1cc(OC(F)F)ccn1 (stereo not drawn) here.
stdout: 4180 nM

stdin: Supply recorded IC50 for COc1cccc(OC)c1C1CCCC(=O)N1Cc1cccc(OC(F)F)c1 (stereo not drawn) here.
stdout: 215 nM

stdin: Supply recorded IC50 for COc1cccc(OC)c1C1CCC(=O)N1Cc1ccc2ccccc2n1 (stereo not drawn) here.
stdout: 409 nM

stdin: Supply recorded IC50 for COc1cccc(OC)c1C1CCCC(=O)N1Cc1ccc(SC(F)(F)F)cc1 (stereo not drawn) here.
stdout: 1310 nM

stdin: Supply recorded IC50 for COc1cccc(OC)c1C1CCCC(=O)N1Cc1ccc(-c2ccccc2)cc1 (stereo not drawn) here.
stdout: 1090 nM

stdin: Supply recorded IC50 for COc1cccc(OC)c1C1CCCC(=O)N1Cc1ccc2nonc2c1 (stereo not drawn) here.
stdout: 2390 nM

stdin: Supply recorded IC50 for COc1cccc(OC)c1C1CCCC(=O)N1Cc1cccc(OC(F)(F)F)c1 (stereo not drawn) here.
stdout: 136 nM

stdin: Supply recorded IC50 for O=C1CCCC(c2c(F)cccc2Cl)N1Cc1ccc(OC(F)(F)F)cc1 (stereo not drawn) here.
stdout: 2920 nM

stdin: Supply recorded IC50 for COc1cccc(OC)c1C1CCCC(=O)N1Cc1cc2ccccc2s1 (stereo not drawn) here.
stdout: 805 nM

stdin: Supply recorded IC50 for COc1cc(OC)c(C2CCCC(=O)N2Cc2ccc(OC(F)(F)F)cc2)c(OC)c1 (stereo not drawn) here.
stdout: 330 nM

stdin: Supply recorded IC50 for COc1cc(OC)c(C2CCC(=O)N2Cc2ccc(OC(F)(F)F)cc2)c(OC)c1 (stereo not drawn) here.
stdout: 1930 nM

stdin: Supply recorded IC50 for COc1cccc(OC)c1C1CCC(=O)N1Cc1ccc(F)cc1 (stereo not drawn) here.
stdout: > 10400 nM

stdin: Supply recorded IC50 for COc1cccc(OC)c1C1CC(C)C(=O)N1Cc1ccnc(OC(F)F)c1 (stereo not drawn) here.
stdout: 224 nM
